# System: RXF 393
# assay-comment: NCI tumour cell line growth inhibition, 48 h
Calls of active or inactive are those of the source. No stated cut-off is given here; in the data, active = GI50 up to about 1.1 µM and inactive = higher.
Some compounds, each annotated with its measured GI50.

compound	GI50
CCOC(=O)c1ccc(NC(=O)Oc2ccc3c(C)cc(=O)oc3c2)cc1	58.6 µM (inactive)
CN(C)CCNC(=O)c1cccc2c1nc(-c1ccccn1)c1ccccc12	14.6 µM (inactive)
CCCCC1Cc2cc(O)ccc2-c2n1c1cc(O)ccc1[n+]2C.CCCCC1Cc2cc(O)ccc2-c2n1c1ccc(O)cc1[n+]2C (stereo not given)	34 µM (inactive)

**Q:** I am curious: what GI50 value has been reported for CCCCc1ccc(Nc2nc(Cl)c3c(ncn3C3CC(Oc4ccc(C)cc4)C(COc4ccc(C)cc4)O3)n2)cc1 (stereo not given) ?
**A:** > 100 µM (inactive)

====

# Tested on: UACC-257
# assay-comment: NCI tumour cell line growth inhibition, 48 h
The source made the active and inactive calls. Rule as the data show it: active = GI50 up to about 1.1 µM and inactive = higher.
parameter: GI50

Worked examples, 5 compounds total:
> print(dat)
                                   compound       recorded.value
1  Cc1cc(C23OC4COC(C)(C)OC4C2OC(C)(C)O3)nc2ccccc12 (stereo unspecified)  > 100 µM (inactive)
2         C[N+](C)=C/C=C(\Cl)c1ccc2ccccc2c1   12.2 µM (inactive)
3             CN1CCC2(CC1)SSC1(CCN(C)CC1)S2  > 100 µM (inactive)
4              Cc1cc(C)n2c(nc3ccccc32)c1C#N  > 100 µM (inactive)
5  COC(=O)C(=O)C(C(=O)C=C(C)C)C(=O)C(=O)Nc1nc2ccc([N+](=O)[O-])cc2s1 (stereo unspecified)   79.8 µM (inactive)

Let us examine a further case.
**Q:** Endpoint output: GI50 of OC1(c2ccccc2)CC2CCC(C1)N2CCc1ccccc1 (stereo unspecified) . Value?
**A:** 24.5 µM (inactive)

====

# Tested on: OVCAR-3
# assay-comment: NCI tumour cell line growth inhibition, 48 h
Active and inactive are the calls of the source. Rule as the data show it: active = GI50 up to about 1.1 µM and inactive = higher.
parameter: GI50

**Q:** Enter reported GI50 observed with OVCAR-3 for Nc1nc(Nc2ccccc2)c2[nH]cnc2n1
**A:** 89.9 µM (inactive)

**Q:** Given the entry Cc1ccc2oc3c(ccc(=O)n3C)c(=O)c2c1 , what GI50 was observed with OVCAR-3?
**A:** > 100 µM (inactive)

**Q:** Under OVCAR-3: GI50 value of NC1=C(NC(=O)Cc2ccccc2F)C(=O)c2ccccc2C1=O ?
**A:** 8.26 µM (inactive)

**Q:** Form field: GI50 recorded for COc1ccc(N(C)Sc2ccccc2)cc1 with OVCAR-3 (enter value)
**A:** 52.4 µM (inactive)

**Q:** Give the reported GI50 for O=C(Nc1cnc(O)nc1O)Oc1ccccc1 (system: OVCAR-3).
**A:** > 100 µM (inactive)

====

# Test system: NCI-H460
# assay-comment: NCI tumour cell line growth inhibition, 48 h
The source made the active and inactive calls. No stated cut-off is given here; in the data, active = GI50 up to about 1.1 µM and inactive = higher.
parameter: GI50

**Q:** Which measured GI50 value corresponds to N#CC(c1ccccc1)N(CCc1ccccc1)C(=O)c1ccc(C(=O)N(CCc2ccccc2)C(C#N)c2ccccc2)cc1 (centres undefined) ?
**A:** 18.5 µM (inactive)

**Q:** Record request: GI50 value, item COc1ccc(OC)c(SC(CC(=O)c2ccccc2)c2ccccc2)c1 (centres undefined)
**A:** 37.1 µM (inactive)

**Q:** Which GI50 is reported for this molecule? C=C1C2CCC3C4(C)CCCC(C)(C(=O)O)C4CCC3(C2)C1OC(=O)/C(C)=C/C (centres undefined)
**A:** 34.6 µM (inactive)

**Q:** Look at this molecule and give its reported GI50. CC(=O)Nc1ccc(/C=C/C(=O)c2sc(C(N)=S)nc2C)cc1
**A:** > 100 µM (inactive)

**Q:** Which measured GI50 value corresponds to CC(C)N1CC2CN(Cc3ccccc3)CC(C1)C2=O ?
**A:** > 100 µM (inactive)

**Q:** What does the record list as GI50 for CC1=C[C@H](O)[C@@]2(C)[C@@H]([C@@H]1C)[C@H]1CC[C@@H]3[C@@]4(C)CC[C@H](O)C(C)(C)[C@@H]4CC[C@@]3(C)[C@]1(C)C[C@@H]2O ?
**A:** 18.9 µM (inactive)
